Entries annotated with measured GI50
Tested on: NCI/ADR-RES
Assay: NCI tumour cell line growth inhibition, 48 h
The source made the active and inactive calls. Cut-off read from the data, not from the text of the source: active = GI50 up to about 1.1 µM and inactive = higher.

Example results:
>  <molecule>
O=C(CNc1ccc(Cl)cc1)Nn1c(-c2ccccc2)nc2ccccc2c1=O

>  <target_or_system>
NCI/ADR-RES

>  <reading>
6.79 µM (inactive)

$$$$
>  <molecule>
COc1ccccc1NC(=O)CC(=O)N1N=C(C)C(/N=N/c2ccc(C(=O)O)cc2)C1=O (configuration not stated)

>  <target_or_system>
NCI/ADR-RES

>  <reading>
> 100 µM (inactive)

$$$$
>  <molecule>
O=S(=O)(Nc1nccs1)c1ccc(Nc2nc(-c3cccs3)nc3ccc(I)cc23)cc1

>  <target_or_system>
NCI/ADR-RES

>  <reading>
> 75.5 µM (inactive)

$$$$
>  <molecule>
CC(C)(C)CN1[C@@H]2CCCC[C@H]2N(CC(C)(C)C)P1(=O)Cc1ccccc1

>  <target_or_system>
NCI/ADR-RES

>  <reading>
12.1 µM (inactive)

$$$$
>  <molecule>
COC(=O)C#Cc1cccc(OC)c1OC

>  <target_or_system>
NCI/ADR-RES

>  <reading>
30.3 µM (inactive)

$$$$
>  <molecule>
COC(=O)C1CC2(CCC1=O)Cc1ccccc1C2=O (configuration not stated)

>  <target_or_system>
NCI/ADR-RES

>  <reading>
99.5 µM (inactive)

$$$$
>  <molecule>
COc1cc2c(c3c1c(=O)c1ccccc1n3C)C=C([N+](=O)[O-])C(C)(C)O2

>  <target_or_system>
NCI/ADR-RES

>  <reading>
2.09 µM (inactive)

$$$$
>  <molecule>
O=C(Cc1ccccc1)NCCCN(CCCCN(CCCNC(=O)Cc1ccccc1)C(=O)OCc1ccccc1)C(=O)OCc1ccccc1

>  <target_or_system>
NCI/ADR-RES

>  <reading>
> 100 µM (inactive)

$$$$

Ask: Determine from records and report GI50 for CCC(C)N1CN(c2ccccc2)C2(CCN(CCCSc3ccc(F)cc3)CC2)C1=O (configuration not stated)
Result: 3.05 µM (inactive)

Ask: Find the measured GI50 of "CCN(CC)/[N+]([O-])=N/OCOC(C)=O" and report it.
Result: > 100 µM (inactive)

Ask: Supply reported GI50 belonging to this molecule: "O=c1c(Cc2c(O)oc3cc(O)ccc3c2=O)c(O)oc2cc(O)ccc12"
Result: > 100 µM (inactive)

Ask: Query GI50 for CCCC(=O)Nc1ncnc2c1ncn2C1OC2COP(=O)(O)OC2C1OC(=O)CCC (configuration not stated)
Result: > 100 µM (inactive)

Ask: Give GI50 for N#CC(c1cc2c(cc1Br)OCO2)N1CCOCC1 (configuration not stated)
Result: 27.1 µM (inactive)
